Test: cross-inhibition, in situ perfusion: [^3H]-arginine with 0.5–500 μM unlabelled ADMA
Assay type: in vivo, mouse
Conditions: male, Balb/c, mouse, pons, other: in situ brain perfusion, with unlabelled ADMA 0.5 µM, pons: [14C] Sucrose, + 0.5 uM ADMA, 10 mins, Balb/c ♂, 5ml/min; mean

# COMPOUND, Kp at 10 min
measured = [
    ("OC[C@H]1O[C@@](CO)(O[C@H]2O[C@H](CO)[C@@H](O)[C@H](O)[C@H]2O)[C@@H](O)[C@@H]1O [[^14C]-sucrose, reference compound]", 0.0597),
]

---

System: [3H]-ADMA transport across the blood-brain and blood-CSF barriers
Assay: self-inhibition, in situ perfusion: [^3H]-ADMA with 100 μM unlabelled ADMA
Assay type: in vivo, mouse
Conditions: male, Balb/c, mouse, pons, other: in situ brain perfusion, with unlabelled ADMA 100 µM, [3H] ADMA + [14C] Sucrose + 100uM un-labelled ADMA, 10 mins, Balb/c ♂, 5ml/min; mean; read-out: uptake into pons
Counter-ions that a name gives are not always drawn.

# COMPOUND, Kp at 10 min, 62.5 nM
measured = [
    ("CN(C)C(N)=NCCC[C@H](N)C(=O)O [ADMA, N^G,N^G-dimethylarginine dihydrochloride]", 0.127),
]

---

Assay: in situ brain/choroid plexus perfusion: CNS uptake of [^3H]-arginine, [^3H]-ADMA and [^14C]-sucrose (multiple-time and single-time uptake analysis)
Settings: male, BALB/c, mouse, pineal gland, Difference (ADMA minus Sucrose), 20 mins, 5ml/min; mean
Where a name gives a salt, the structure may show the parent alone.
ASSAY ENDPOINT: Kp at 20 min, 62.5 nM

# COMPOUND, RECORDED VALUE
rows = [
    ("CN(C)C(N)=NCCC[C@H](N)C(=O)O [ADMA, N^G,N^G-dimethylarginine dihydrochloride]", 0.986),
]

---

Test: in situ brain/choroid plexus perfusion: CNS uptake of [^3H]-arginine, [^3H]-ADMA and [^14C]-sucrose (multiple-time and single-time uptake analysis)
Conditions: male, BALB/c, mouse, pons

# MOLECULE, Kp at 30 min, […]
records = [
    ("N=C(N)NCCC[C@H](N)C(=O)O [[^3H]-arginine, reference compound]", "~1.85"),
]

---

Assay: in situ brain/choroid plexus perfusion: CNS uptake of [^3H]-arginine, [^3H]-ADMA and [^14C]-sucrose (multiple-time and single-time uptake analysis)
Conditions: male, BALB/c, mouse, hippocampus, Difference (ADMA minus Sucrose), 2.5 mins, 5ml/min; mean
Where a name gives a salt, the structure may show the parent alone.

# MOLECULE, Kp at […], 62.5 nM
data = [
    ("CN(C)C(N)=NCCC[C@H](N)C(=O)O [ADMA, N^G,N^G-dimethylarginine dihydrochloride]", 0.1),
]

---

System: [3H]-ADMA transport across the blood-brain and blood-CSF barriers
Experiment: self-inhibition, in situ perfusion: [^3H]-ADMA with 100 μM unlabelled ADMA
Format: in vivo, mouse
Settings: male, Balb/c, mouse, supernatant, other: in situ brain perfusion, with unlabelled ADMA 100 µM, [3H] ADMA + [14C] Sucrose + 100uM un-labelled ADMA, 10 mins, Balb/c ♂, 5ml/min; mean; read-out: uptake, supernatant
Where a name gives a salt, the structure may show the parent alone.
ASSAY ENDPOINT: Kp at 10 min, 62.5 nM

# COMPOUND, RECORDED VALUE
records = [
    ("CN(C)C(N)=NCCC[C@H](N)C(=O)O [ADMA, N^G,N^G-dimethylarginine dihydrochloride]", 0.0703),
]

---

Test: in situ brain/choroid plexus perfusion: CNS uptake of [^3H]-arginine, [^3H]-ADMA and [^14C]-sucrose (multiple-time and single-time uptake analysis)
Details: male, BALB/c, mouse, pituitary gland, [3H] ADMA and [14C] Sucrose uptake, 20 mins, 5ml/min; mean
Counter-ions that a name gives are not always drawn.

# COMPOUND, Kp at 20 min, 62.5 nM
records = [
    ("CN(C)C(N)=NCCC[C@H](N)C(=O)O [ADMA, N^G,N^G-dimethylarginine dihydrochloride]", 1.4),
]

---

Experiment: self-inhibition, in situ perfusion: [^3H]-arginine with 100 μM unlabelled L-arginine
Type: in vivo, mouse
Conditions: male, Balb/c, mouse, pellet, other: in situ brain perfusion, with 100 µM unlabelled L-arginine, pellet: [14C] Sucrose, +100uM Un-labelled arginine, 10 mins, Balb/c ♂, 5ml/min; mean

# MOLECULE, Kp at 10 min
data = [
    ("OC[C@H]1O[C@@](CO)(O[C@H]2O[C@H](CO)[C@@H](O)[C@H](O)[C@H]2O)[C@@H](O)[C@@H]1O [[^14C]-sucrose, reference compound]", 0.00699),
]

---

Experiment: in situ brain/choroid plexus perfusion: CNS uptake of [^3H]-arginine, [^3H]-ADMA and [^14C]-sucrose (multiple-time and single-time uptake analysis)
Conditions: male, BALB/c, mouse, CSF, Difference (ADMA minus Sucrose), 20 mins, 5ml/min; individual mouse
Structures can show the parent of a compound that is named as a salt.
ASSAY ENDPOINT: Kp at 20 min, 62.5 nM

# MOLECULE, ASSAY ENDPOINT, RECORDED VALUE
rows = [
    ("CN(C)C(N)=NCCC[C@H](N)C(=O)O [ADMA, N^G,N^G-dimethylarginine dihydrochloride]", "Kp at 20 min, 62.5 nM", 0.197),
]

---

Test: in situ brain/choroid plexus perfusion: CNS uptake of [^3H]-arginine, [^3H]-ADMA and [^14C]-sucrose (multiple-time and single-time uptake analysis)
Details: male, BALB/c, mouse, pituitary gland, Difference (ADMA minus Sucrose), 20 mins, 5ml/min; mean
Where a name gives a salt, the structure may show the parent alone.

# COMPOUND, Kp at 20 min, 62.5 nM
data = [
    ("CN(C)C(N)=NCCC[C@H](N)C(=O)O [ADMA, N^G,N^G-dimethylarginine dihydrochloride]", 1.19),
]

---

System: [3H]-ADMA transport across the blood-brain and blood-CSF barriers
Experiment: cross-inhibition, in situ perfusion: [^3H]-ADMA with 100 μM unlabelled L-arginine
Type: in vivo, mouse
Settings: male, Balb/c, mouse, choroid plexus, other: in situ brain perfusion, with 100 µM unlabelled L-arginine, Difference (ADMA minus Sucrose), choroid plexus, + 100uM Arg, 10 mins, Balb/c ♂, 5ml/min; mean
Method: Self-inhibition experiments were also performed. […] Cross-competition experiments were also performed. The percentage change in the RTissue uptake values achieved in the absence or presence of an unlabelled inhibitor can be calculated by means of Eq 4. %change=RTissue−RInhibition/RTissue×100 Eq 4 We define RInhibition as the RTissue uptake in the presence of an inhibitor in the artificial plasma. […]
Counter-ions that a name gives are not always drawn.
ASSAY ENDPOINT: Kp at 10 min, 62.5 nM

# MOLECULE, ASSAY ENDPOINT, RECORDED VALUE
rows = [
    ("CN(C)C(N)=NCCC[C@H](N)C(=O)O [ADMA, N^G,N^G-dimethylarginine dihydrochloride]", "Kp at 10 min, 62.5 nM", 0.471),
]

---

Measured Kp at 30 min, 62.5 nM values are reported for all entries that follow.
Experiment: capillary depletion analysis after in situ brain perfusion
Type: in vivo, mouse
Settings: male, BALB/c, mouse, endothelial cell-enriched pellet (capillary depletion), other: in situ brain perfusion, [3H] ADMA + [14C] Sucrose, 30 mins, Balb/c ♂, 5ml/min; mean; read-out: uptake, pellet
Structures can show the parent of a compound that is named as a salt.
ASSAY ENDPOINT: Kp at 30 min, 62.5 nM

# COMPOUND, ASSAY ENDPOINT, RECORDED VALUE
rows = [
    ("OC[C@H]1O[C@@](CO)(O[C@H]2O[C@H](CO)[C@@H](O)[C@H](O)[C@H]2O)[C@@H](O)[C@@H]1O [[^14C]-sucrose, reference compound]", "Kp at 30 min, 62.5 nM", 0.00455),
    ("CN(C)C(N)=NCCC[C@H](N)C(=O)O [ADMA, N^G,N^G-dimethylarginine dihydrochloride]", "Kp at 30 min, 62.5 nM", 0.0166),
]

---

Test: in situ brain/choroid plexus perfusion: CNS uptake of [^3H]-arginine, [^3H]-ADMA and [^14C]-sucrose (multiple-time and single-time uptake analysis)
Details: male, BALB/c, mouse, in vivo, tissue or CSF to plasma ratio (mean), frontal cortex; 20 mins; uncorrected; given as fraction

# COMPOUND, Kp at 20 min
records = [
    ("OC[C@H]1O[C@@](CO)(O[C@H]2O[C@H](CO)[C@@H](O)[C@H](O)[C@H]2O)[C@@H](O)[C@@H]1O [[^14C]-sucrose, reference compound]", 0.0797),
]

---

Test system: [3H]-ADMA transport across the blood-brain and blood-CSF barriers
Assay: self-inhibition, in situ perfusion: [^3H]-ADMA with 100 μM unlabelled ADMA
Type: in vivo, mouse
Settings: male, Balb/c, mouse, hypothalamus, other: in situ brain perfusion, with unlabelled ADMA 100 µM, [3H] ADMA + [14C] Sucrose + 100uM un-labelled ADMA, 10 mins, Balb/c ♂, 5ml/min; mean; read-out: uptake into hypothalamus
Where a name gives a salt, the structure may show the parent alone.

# COMPOUND, Kp at 10 min, 62.5 nM
measured = [
    ("CN(C)C(N)=NCCC[C@H](N)C(=O)O [ADMA, N^G,N^G-dimethylarginine dihydrochloride]", 0.146),
]

Values compiled from paper PMC11501026.
